Measured EC50 values are reported for all entries that follow.
Target: TLR8 (Homo sapiens, UniProt Q9NR97)
Construct: host or cells: HEK-Blue cells (human HEK) co-expressing TLR8 and an NF-kB/AP1-inducible SEAP reporter
Sequence (Q9NR97 27-1041): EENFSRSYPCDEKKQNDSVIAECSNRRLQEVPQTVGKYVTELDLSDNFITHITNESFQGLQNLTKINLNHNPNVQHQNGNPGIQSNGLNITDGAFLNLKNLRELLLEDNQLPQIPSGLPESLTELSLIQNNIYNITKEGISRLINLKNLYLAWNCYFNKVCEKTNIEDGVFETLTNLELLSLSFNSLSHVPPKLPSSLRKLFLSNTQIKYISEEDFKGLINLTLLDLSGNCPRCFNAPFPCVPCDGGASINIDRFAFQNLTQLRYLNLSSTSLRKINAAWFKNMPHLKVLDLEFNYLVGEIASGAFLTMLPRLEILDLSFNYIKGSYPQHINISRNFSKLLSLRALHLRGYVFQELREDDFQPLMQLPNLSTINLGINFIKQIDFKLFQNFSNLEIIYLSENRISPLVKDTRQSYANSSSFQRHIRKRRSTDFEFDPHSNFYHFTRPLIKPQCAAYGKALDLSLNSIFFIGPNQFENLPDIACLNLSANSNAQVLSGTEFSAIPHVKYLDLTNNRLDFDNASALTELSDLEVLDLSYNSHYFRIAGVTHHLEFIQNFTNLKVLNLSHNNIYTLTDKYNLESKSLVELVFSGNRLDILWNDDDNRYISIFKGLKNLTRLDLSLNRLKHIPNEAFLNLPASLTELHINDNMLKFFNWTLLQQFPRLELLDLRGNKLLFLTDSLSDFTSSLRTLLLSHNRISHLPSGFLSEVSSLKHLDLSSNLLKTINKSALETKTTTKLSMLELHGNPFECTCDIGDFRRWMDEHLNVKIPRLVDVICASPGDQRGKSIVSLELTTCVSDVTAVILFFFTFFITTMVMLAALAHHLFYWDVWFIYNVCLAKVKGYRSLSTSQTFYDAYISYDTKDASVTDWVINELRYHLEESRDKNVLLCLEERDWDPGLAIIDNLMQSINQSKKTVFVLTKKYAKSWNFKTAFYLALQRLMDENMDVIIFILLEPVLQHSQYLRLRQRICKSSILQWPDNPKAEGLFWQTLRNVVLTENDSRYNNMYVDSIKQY
Test: In vitro human TLR8 binding reporter assay (HEK-Blue, NF-kB/AP1-inducible SEAP)
Format: cell-based
Conditions: activity range symbols
Experimental: In Vitro Human TLR7 and TLR8 Binding Reporter Assays Logarithmically-growing human HEK-Blue cells co-expressing a TLR7 or TLR8 gene and a NF-kB/AP1-inducible SEAP (secreted embryonic alkaline phosphatase; Invivogen, San Diego, CA) reporter gene are added to individual wells of a 384-well plate (15,000 cells per 20 μL per well) and maintained for 24 h at 37° C., 5% CO2. […] All EC50 values (half-maximal effective concentration) are determined using proprietary data analysis software.
Metric: EC50

INSERT INTO assay_data (molecule, value_reported) VALUES
  ('COC(=O)CCCn1c(CN2CCCC2=O)nc2c(N)nc3cc(Cl)ccc3c21 [Compound 216]', '> 100 µM'),
  ('Nc1nc2cc(-c3cnccc3Cl)ccc2c2[nH]c(CN3CCCC3=O)nc12 [Compound 321]', '> 100 µM'),
  ('CCN(Cc1nc2c(N)nc3cc(-c4cccs4)ccc3c2n1CC)C(C)=O [Compound 472]', '> 100 µM'),
  ('Nc1nc2cc(-c3cccc(Cl)c3)ccc2c2[nH]c(CN3CCCC3=O)nc12 [Compound 285]', '> 100 µM'),
  ('COC(=O)CCCn1c(CN2CCCC2=O)nc2c(N)nc3ccccc3c21 [Compound 335]', '> 100 µM'),
  ('CCNCc1nc2c(N)nc3cc(-c4ncc[nH]4)ccc3c2[nH]1 [Compound 162]', '> 100 µM'),
  ('CCNCc1nc2c(N)nc3cc(-c4cccs4)ccc3c2[nH]1 [Compound 399]', '> 100 µM'),
  ('Nc1nc2cc(Cl)ccc2c2[nH]c(CN3CCCC3=O)nc12 [Compound 143]', '> 100 µM'),
  ('COc1ccccc1-c1ccc2c(c1)nc(N)c1nc(CN3CCCC3=O)[nH]c12 [Compound 283]', '> 100 µM'),
  ('CCN(Cc1nc2c(N)nc3ccc(Br)cc3c2[nH]1)S(=O)(=O)c1ccc(C)cc1 [Compound 202]', '> 100 µM'),
  ('Nc1nc2cc(-n3cccn3)ccc2c2[nH]c(CN3C[C@@H](c4ccccc4)CC3=O)nc12 [Compound 357]', '> 100 µM'),
  ('Nc1nc2cc(-c3cncc(F)c3)ccc2c2[nH]c(CN3CCCC3=O)nc12 [Compound 331]', '> 100 µM'),
  ('COc1ccc(Cn2c(CN3CCN(C)C3=O)nc3c(N)nc4cc(-c5cc[nH]n5)ccc4c32)cc1 [Compound 403]', '> 100 µM'),
  ('CN(C)C(=O)CCCn1c(CN2CCCC2=O)nc2c(N)nc3cc(Br)ccc3c21 [Compound 215]', '> 100 µM'),
  ('CCN(Cc1nc2c(N)nc3cc(-c4cc[nH]n4)ccc3c2[nH]1)C(=O)C1CC1 [Compound 118]', '> 100 µM'),
  ('CCN(Cc1nc2c(N)nc3ccccc3c2n1CCCC(=O)OC)C(C)=O [Compound 164]', '> 100 µM'),
  ('CCN(Cc1nc2c(N)nc3cc(-c4ccsc4)ccc3c2[nH]1)C(=O)OC(C)(C)C [Compound 397]', '> 100 µM');

* * *

molecular target: hNLRP3 (Homo sapiens, UniProt Q96P20); construct: THP-1 cells were purchased from the American Type Culture Collection; host or cells: THP-1 cells, PMA-differentiated; test: Measurement of IL-1β production in PMA-differentiated THP-1 cells (hNLRP3 agonist; ELISA, alternative and hTRF procedures); format: cell-based
Sequence (Q96P20 whole entry): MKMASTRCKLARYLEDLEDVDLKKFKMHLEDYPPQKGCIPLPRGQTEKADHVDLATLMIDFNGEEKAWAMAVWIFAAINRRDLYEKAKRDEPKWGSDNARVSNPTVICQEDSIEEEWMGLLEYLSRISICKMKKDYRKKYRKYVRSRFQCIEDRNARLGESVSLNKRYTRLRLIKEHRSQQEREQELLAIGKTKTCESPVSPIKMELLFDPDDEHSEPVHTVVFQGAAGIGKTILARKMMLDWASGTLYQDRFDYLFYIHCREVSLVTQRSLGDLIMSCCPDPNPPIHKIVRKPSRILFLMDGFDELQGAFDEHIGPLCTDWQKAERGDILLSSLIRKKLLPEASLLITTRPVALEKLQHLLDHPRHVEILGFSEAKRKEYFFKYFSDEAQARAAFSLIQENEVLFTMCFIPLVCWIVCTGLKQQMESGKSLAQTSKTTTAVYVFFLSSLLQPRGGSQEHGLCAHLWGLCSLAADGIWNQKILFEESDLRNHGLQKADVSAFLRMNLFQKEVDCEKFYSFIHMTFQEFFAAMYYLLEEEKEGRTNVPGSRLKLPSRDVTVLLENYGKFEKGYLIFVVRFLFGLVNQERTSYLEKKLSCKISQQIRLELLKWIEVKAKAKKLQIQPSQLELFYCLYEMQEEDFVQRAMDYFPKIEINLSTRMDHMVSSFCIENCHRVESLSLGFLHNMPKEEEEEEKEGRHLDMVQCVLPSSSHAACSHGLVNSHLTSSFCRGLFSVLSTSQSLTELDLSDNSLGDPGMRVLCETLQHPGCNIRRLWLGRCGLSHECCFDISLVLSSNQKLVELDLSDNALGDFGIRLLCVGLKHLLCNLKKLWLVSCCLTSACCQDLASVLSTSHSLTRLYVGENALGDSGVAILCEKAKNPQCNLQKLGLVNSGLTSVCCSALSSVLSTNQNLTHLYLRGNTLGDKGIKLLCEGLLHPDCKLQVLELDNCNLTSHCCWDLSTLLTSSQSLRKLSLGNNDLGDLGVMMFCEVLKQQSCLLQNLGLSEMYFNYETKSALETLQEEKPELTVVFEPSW
Note to self: EC50 under 4 µM means Criterion met, ties and anything higher get Criterion not met.

INSERT INTO assay_data (compound_structure_string, system_tested, cat) VALUES
  ('CC(=O)N(C)Cc1nc2c(N)nc3cc(-n4cccn4)ccc3c2[nH]1', 'hNLRP3 (Homo sapiens, UniProt Q96P20)', 'Criterion met'),
  ('Nc1nc2cc(-c3cccnc3Cl)ccc2c2[nH]c(CN3CCCC3=O)nc12', 'hNLRP3 (Homo sapiens, UniProt Q96P20)', 'Criterion met'),
  ('Nc1nc2ccc(Cl)cc2c2[nH]c(CN3CCCC3=O)nc12', 'hNLRP3 (Homo sapiens, UniProt Q96P20)', 'Criterion not met'),
  ('CS(=O)(=O)NCc1nc2c(N)nc3cc(-c4cc[nH]n4)ccc3c2[nH]1', 'hNLRP3 (Homo sapiens, UniProt Q96P20)', 'Criterion met'),
  ('COc1cccc(-c2ccc3c(c2)nc(N)c2nc(CN4CCCC4=O)[nH]c23)c1', 'hNLRP3 (Homo sapiens, UniProt Q96P20)', 'Criterion met'),
  ('CCNCc1nc2c(N)nc3cc(Br)ccc3c2[nH]1', 'hNLRP3 (Homo sapiens, UniProt Q96P20)', 'Criterion not met'),
  ('CCN(Cc1nc2c(N)nc3ccccc3c2n1CCC(=O)N1CCN(C(=O)OC(C)(C)C)CC1)C(=O)OC(C)(C)C', 'hNLRP3 (Homo sapiens, UniProt Q96P20)', 'Criterion not met'),
  ('CCN(Cc1nc2c(N)nc3cc(-c4cc[nH]n4)ccc3c2[nH]1)C(=O)c1ccc(OC)cc1', 'hNLRP3 (Homo sapiens, UniProt Q96P20)', 'Criterion met'),
  ('CCN(Cc1nc2c(N)nc3cc(-n4cccn4)ccc3c2[nH]1)S(C)(=O)=O', 'hNLRP3 (Homo sapiens, UniProt Q96P20)', 'Criterion met'),
  ('COC(=O)CCCn1c(CN2CCCCC2=O)nc2c(N)nc3ccccc3c21', 'hNLRP3 (Homo sapiens, UniProt Q96P20)', 'Criterion not met'),
  ('CCNCc1nc2c(N)nc3cc(-c4ccn[nH]4)ccc3c2n1CCO', 'hNLRP3 (Homo sapiens, UniProt Q96P20)', 'Criterion not met'),
  ('CCN(Cc1nc2c(N)nc3cc(-c4cncc(F)c4)ccc3c2[nH]1)C(C)=O', 'hNLRP3 (Homo sapiens, UniProt Q96P20)', 'Criterion not met'),
  ('Nc1nc2cc(-n3cccn3)ccc2c2[nH]c(CN3CCCC3=O)nc12', 'hNLRP3 (Homo sapiens, UniProt Q96P20)', 'Criterion met'),
  ('Nc1nc2cc(-c3cc[nH]n3)ccc2c2[nH]c(CN3CCOCC3=O)nc12', 'hNLRP3 (Homo sapiens, UniProt Q96P20)', 'Criterion met'),
  ('COC(=O)CCCn1c(CN2CCCC2=O)nc2c(N)nc3cc(-c4cccnc4)ccc3c21', 'hNLRP3 (Homo sapiens, UniProt Q96P20)', 'Criterion met'),
  ('CCN(Cc1nc2c(N)nc3cc(Br)ccc3c2n1CC(C)C)C(C)=O', 'hNLRP3 (Homo sapiens, UniProt Q96P20)', 'Criterion not met');

* * *

Measured EC50 values are reported for all entries that follow.
target: TLR7 (Homo sapiens); construct: host or cells: HEK-Blue cells (human HEK) co-expressing TLR7 and an NF-kB/AP1-inducible SEAP reporter; assay: In vitro human TLR7 binding reporter assay (HEK-Blue, NF-kB/AP1-inducible SEAP); format: cell-based; conditions: activity range symbols
Sequence (Q9NYK1 27-1049): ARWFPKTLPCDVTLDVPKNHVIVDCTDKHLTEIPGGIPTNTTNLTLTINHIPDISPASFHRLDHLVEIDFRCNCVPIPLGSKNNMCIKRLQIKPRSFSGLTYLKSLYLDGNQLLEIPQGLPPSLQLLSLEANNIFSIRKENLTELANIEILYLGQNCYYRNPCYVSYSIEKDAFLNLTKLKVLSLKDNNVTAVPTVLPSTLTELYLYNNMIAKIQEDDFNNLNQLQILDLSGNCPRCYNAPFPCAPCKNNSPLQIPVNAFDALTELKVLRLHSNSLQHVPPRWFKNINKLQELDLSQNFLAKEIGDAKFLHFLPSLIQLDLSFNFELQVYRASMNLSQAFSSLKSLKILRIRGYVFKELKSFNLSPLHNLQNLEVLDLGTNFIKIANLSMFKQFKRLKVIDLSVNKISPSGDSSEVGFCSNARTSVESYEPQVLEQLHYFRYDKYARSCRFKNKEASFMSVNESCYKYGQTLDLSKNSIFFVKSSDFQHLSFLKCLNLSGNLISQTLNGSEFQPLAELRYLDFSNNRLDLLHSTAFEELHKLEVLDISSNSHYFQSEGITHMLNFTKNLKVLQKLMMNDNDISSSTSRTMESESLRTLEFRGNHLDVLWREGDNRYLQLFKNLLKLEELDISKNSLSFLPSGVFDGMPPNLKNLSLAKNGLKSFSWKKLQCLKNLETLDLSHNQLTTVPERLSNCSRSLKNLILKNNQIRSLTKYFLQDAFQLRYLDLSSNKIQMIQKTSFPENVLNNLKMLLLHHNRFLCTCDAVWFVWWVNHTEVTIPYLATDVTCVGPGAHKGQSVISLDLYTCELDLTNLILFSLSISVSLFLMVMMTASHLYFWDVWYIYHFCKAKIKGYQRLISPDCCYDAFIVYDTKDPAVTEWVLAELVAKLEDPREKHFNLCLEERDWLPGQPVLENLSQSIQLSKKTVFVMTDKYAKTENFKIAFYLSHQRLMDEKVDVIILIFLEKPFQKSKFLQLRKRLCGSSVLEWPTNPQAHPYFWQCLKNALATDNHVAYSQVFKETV
Metric: EC50

INSERT INTO assay_data (compound, metric, value_reported) VALUES
  ('CCN(Cc1nc2c(N)nc3cc(-c4cc[nH]n4)ccc3c2[nH]1)C(=O)c1nccs1 [Compound 114]', 'EC50', '> 100 µM'),
  ('CCN(Cc1nc2c(N)nc3cc(-c4cc[nH]n4)ccc3c2[nH]1)C(=O)CCCc1ccccc1 [Compound 444]', 'EC50', '> 100 µM'),
  ('CCN(Cc1nc2c(N)nc3ccccc3c2n1CCC(=O)N1CCN(C(=O)OC(C)(C)C)CC1)C(=O)OC(C)(C)C [Compound 211]', 'EC50', '> 100 µM'),
  ('CC(c1nc2c(N)nc3cc(-n4cccn4)ccc3c2[nH]1)N1CCCC1=O (centres unmarked) [Compound 117]', 'EC50', '20 to 100 µM'),
  ('CCN(Cc1nc2c(N)nc3cc(-n4cccn4)ccc3c2n1CC)C(C)=O [Compound 479]', 'EC50', '> 100 µM'),
  ('CCNCc1nc2c(N)nc3cc(-n4cccn4)ccc3c2n1CCO [Compound 477]', 'EC50', '> 100 µM'),
  ('COC(=O)CCCn1c(CN2CCCC2=O)nc2c(N)nc3cc(Cl)ccc3c21 [Compound 216]', 'EC50', '> 100 µM'),
  ('CCN(Cc1nc2c(N)nc3ccccc3c2n1CCCC(=O)OC)C(C)=O [Compound 164]', 'EC50', '> 100 µM');

* * *

target: hNLRP3 (Homo sapiens, UniProt Q96P20); construct: THP-1 cells were purchased from the American Type Culture Collection; experiment: Measurement of IL-1β production in PMA-differentiated THP-1 cells (hNLRP3 agonist; ELISA, alternative and hTRF procedures)
Metric: EC50

INSERT INTO assay_data (compound_structure_string, value_reported) VALUES
  ('CCC(=O)N(CC)Cc1nc2c(N)nc3cc(-c4ccn[nH]4)ccc3c2n1CCO', '23 µM'),
  ('CCC(=O)N(CC)Cc1nc2c(N)nc3cc(-c4cccs4)ccc3c2n1CCO', '0.69 µM'),
  ('CCN(Cc1nc2c(N)nc3cc(Cl)ccc3c2n1CCCC(=O)NC)C(C)=O', '96 µM'),
  ('Cc1ccc(-c2ccc3c(c2)nc(N)c2nc(CN4CCCC4=O)[nH]c23)cc1', '0.11 µM'),
  ('N#Cc1ccc(-c2ccc3c(c2)nc(N)c2nc(CN4CCCC4=O)[nH]c23)cn1', '13 µM'),
  ('Nc1nc2cc(-c3cncc(F)c3)ccc2c2[nH]c(CN3CCCC3=O)nc12', '3.2 µM');
